Species on record: Rattus norvegicus
Experiment: Open TG-GATES - Regimen: Daily Repeat
Type: toxicity, organism-based, Sprague-Dawley
Parameters: regimen Daily Repeat, gender Male, age 6 weeks
Details: in vivo, po, 300 mg/kg, […], route gavage, dose level Middle, time 28 day
Some molecules, each annotated with its measured TERMINAL_BW.
Please state the value followed by its unit.

Reference set, count: 3
{"MOLECULE": "CC(C)(S)[C@@H](N)C(=O)O [PENICILLAMINE]", "TERMINAL_BW": "390 g"}
{"MOLECULE": "CCN1CCCC1CNC(=O)c1cc(S(N)(=O)=O)ccc1OC (centres undefined) [SULPIRIDE]", "TERMINAL_BW": "375.2 g"}
{"MOLECULE": "O=C(N[C@H](CO)[C@H](O)c1ccc([N+](=O)[O-])cc1)C(Cl)Cl [CHLORAMPHENICOL]", "TERMINAL_BW": "411.6 g"}

Okay, next one:
Q: Recorded TERMINAL_BW for O=C(O)c1cccnc1 [NIACIN] , please?
Ans: 396.3 g

###

Organism: Rattus norvegicus
Experiment: Open TG-GATES - Regimen: Daily Repeat
Assay type: toxicity, organism-based, Sprague-Dawley
Set-up: regimen Daily Repeat, gender Male, age 6 weeks
Settings: in vivo, po, 1000 mg/kg, […], tissue Blood, route gavage, dose level High, time 28 day
PROPERTY_NAME: Fbg
Please state the value followed by its unit.

Reference set, count: 3
{"COMPOUND": "CCN1CCCC1CNC(=O)c1cc(S(N)(=O)=O)ccc1OC (centres undefined) [SULPIRIDE]", "Fbg": "278.4 mg/dL"}
{"COMPOUND": "O=C(O)c1cccnc1", "Fbg": "310.8 mg/dL"}
{"COMPOUND": "O=C(N[C@H](CO)[C@H](O)c1ccc([N+](=O)[O-])cc1)C(Cl)Cl", "Fbg": "303 mg/dL"}

Q: Recorded Fbg for CC(C)(S)[C@@H](N)C(=O)O , please?
Ans: 646.8 mg/dL

###

Species: Rattus norvegicus
Assay: Open TG-GATES - Regimen: Single
Type: toxicity, organism-based, Sprague-Dawley
Parameters: regimen Single, gender Male, age 6 weeks
Conditions: in vivo, po, 0 mg/kg, 9 h, tissue Blood, route gavage, dose level Control
PROPERTY_NAME: MCH (pg)
All answers are understood in pg, so give the number only.

{"MOLECULE": "Nc1nc(N)c2nc(-c3ccccc3)c(N)nc2n1", "UNITS_TEXT": "pg", "MCH": 20.5}
{"MOLECULE": "CC(=N)S [THIOACETAMIDE]", "UNITS_TEXT": "pg", "MCH": 22}
{"MOLECULE": "CC(C)C(=O)Nc1ccc([N+](=O)[O-])c(C(F)(F)F)c1 [FLUTAMIDE]", "UNITS_TEXT": "pg", "MCH": 21.6}
{"MOLECULE": "C#C[C@]1(O)CC[C@H]2[C@@H]3CCc4cc(O)ccc4[C@H]3CC[C@@]21C", "UNITS_TEXT": "pg", "MCH": 21.8}

Q: Recorded MCH for C[C@](N)(Cc1ccc(O)c(O)c1)C(=O)O , please?
Ans: 21.7

###

Species: Rattus norvegicus
Assay: Open TG-GATES - Regimen: Daily Repeat
Format: toxicity, organism-based, Sprague-Dawley
Set-up: regimen Daily Repeat, gender Male, age 6 weeks
Conditions: in vivo, po, 1000 mg/kg, […], tissue Blood, route gavage, dose level High, time 28 day
PROPERTY_NAME: Plat (x10_4/uL)
All answers are understood in x10_4/uL, so give the number only.

Reference set, count: 3
{"COMPOUND": "O=C(O)c1cccnc1 [NIACIN]", "PROPERTY_NAME": "Plat", "OBSERVED_MEASUREMENT": 88.1}
{"COMPOUND": "CCN1CCCC1CNC(=O)c1cc(S(N)(=O)=O)ccc1OC (centres undefined) [SULPIRIDE]", "PROPERTY_NAME": "Plat", "OBSERVED_MEASUREMENT": 111.2}
{"COMPOUND": "O=C(N[C@H](CO)[C@H](O)c1ccc([N+](=O)[O-])cc1)C(Cl)Cl [CHLORAMPHENICOL]", "PROPERTY_NAME": "Plat", "OBSERVED_MEASUREMENT": 106.7}

Q: Recorded Plat for CC(C)(S)[C@@H](N)C(=O)O [PENICILLAMINE] , please?
Ans: 156.3

###

Organism: Rattus norvegicus
Assay: Open TG-GATES - Regimen: Daily Repeat
Type: toxicity, organism-based, Sprague-Dawley
Parameters: regimen Daily Repeat, gender Male, age 6 weeks
Settings: in vivo, po, 100 mg/kg, 72 h, tissue Blood, route gavage, dose level Low, time 3 day
PROPERTY_NAME: Ht

{"COMPOUND": "O=C(N[C@H](CO)[C@H](O)c1ccc([N+](=O)[O-])cc1)C(Cl)Cl [CHLORAMPHENICOL]", "OBSERVED_MEASUREMENT": "40.4%"}
{"COMPOUND": "CCN1CCCC1CNC(=O)c1cc(S(N)(=O)=O)ccc1OC (centres undefined) [SULPIRIDE]", "OBSERVED_MEASUREMENT": "41.3%"}
{"COMPOUND": "CC(C)(S)[C@@H](N)C(=O)O [PENICILLAMINE]", "OBSERVED_MEASUREMENT": "41.6%"}

Okay, next one:
Q: Recorded Ht for O=C(O)c1cccnc1 [NIACIN] , please?
Ans: 40.5%

###

Organism: Rattus norvegicus
Assay: Open TG-GATES - Regimen: Daily Repeat
Type: toxicity, organism-based, Sprague-Dawley
Set-up: regimen Daily Repeat, gender Male, age 6 weeks
Conditions: in vivo, po, 1000 mg/kg, 72 h, tissue Blood, route gavage, dose level High, time 3 day
PROPERTY_NAME: Fbg (mg/dL)
All answers are understood in mg/dL, so give the number only.

Reference set, count: 3
{"COMPOUND": "O=C(N[C@H](CO)[C@H](O)c1ccc([N+](=O)[O-])cc1)C(Cl)Cl [CHLORAMPHENICOL]", "PROPERTY_NAME": "Fbg", "UNITS_TEXT": "mg/dL", "OBSERVED_MEASUREMENT": 313.4}
{"COMPOUND": "CCN1CCCC1CNC(=O)c1cc(S(N)(=O)=O)ccc1OC (centres undefined) [SULPIRIDE]", "PROPERTY_NAME": "Fbg", "UNITS_TEXT": "mg/dL", "OBSERVED_MEASUREMENT": 274.2}
{"COMPOUND": "O=C(O)c1cccnc1 [NIACIN]", "PROPERTY_NAME": "Fbg", "UNITS_TEXT": "mg/dL", "OBSERVED_MEASUREMENT": 319.4}

Q: Recorded Fbg for CC(C)(S)[C@@H](N)C(=O)O [PENICILLAMINE] , please?
Ans: 286.4

###

Organism: Rattus norvegicus
Assay: Open TG-GATES - Regimen: Daily Repeat
Type: toxicity, organism-based, Sprague-Dawley
Design: regimen Daily Repeat, gender Male, age 6 weeks
Details: in vivo, po, 100 mg/kg, […], tissue Plasma, route gavage, dose level Low, time 28 day
Some molecules, each annotated with its measured ALP.
Please state the value followed by its unit.

Reference set, count: 3
{"MOLECULE": "CC(C)(S)[C@@H](N)C(=O)O [PENICILLAMINE]", "ALP": "1085 IU/L"}
{"MOLECULE": "O=C(O)c1cccnc1 [NIACIN]", "ALP": "1249.8 IU/L"}
{"MOLECULE": "CCN1CCCC1CNC(=O)c1cc(S(N)(=O)=O)ccc1OC (centres undefined) [SULPIRIDE]", "ALP": "981.6 IU/L"}

Q: Recorded ALP for O=C(N[C@H](CO)[C@H](O)c1ccc([N+](=O)[O-])cc1)C(Cl)Cl [CHLORAMPHENICOL] , please?
Ans: 1164.4 IU/L

###

Some compounds, each annotated with its measured Hb.
Species on record: Rattus norvegicus
Assay: Open TG-GATES - Regimen: Daily Repeat
Assay type: toxicity, organism-based, Sprague-Dawley
Parameters: regimen Daily Repeat, gender Male, age 6 weeks
Conditions: in vivo, po, 1000 mg/kg, […], tissue Blood, route gavage, dose level High, time 14 day
All answers are understood in g/dL, so give the number only.

Reference set, count: 3
{"COMPOUND": "CCN1CCCC1CNC(=O)c1cc(S(N)(=O)=O)ccc1OC (centres undefined) [SULPIRIDE]", "UNITS_TEXT": "g/dL", "Hb": 14.9}
{"COMPOUND": "O=C(O)c1cccnc1", "UNITS_TEXT": "g/dL", "Hb": 13.9}
{"COMPOUND": "CC(C)(S)[C@@H](N)C(=O)O", "UNITS_TEXT": "g/dL", "Hb": 13.1}

Okay, next one:
Q: Recorded Hb for O=C(N[C@H](CO)[C@H](O)c1ccc([N+](=O)[O-])cc1)C(Cl)Cl , please?
Ans: 13.9
